- TARGET OR SYSTEM: FZD2 cysteine-rich domain (CRD), MYC-tagged and GPI-anchored on CHO cells (human, UniProt Q14332 35-161)
- ASSAY METHOD TEXT: flow cytometry, CHO-CRD cells;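 also: flow cytometry of Fab binding to CHO cells overexpressing a Frizzled CRD, with binding defined as median fluorescence over twice that of CHO cells lacking any Frizzled CRD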
QUANTITY: median fluorescence
Number, no unit, nothing else.

Some entries whose results are on file:
Fab-2904 (Fab, V domains shown, Fab; also called Fv-2904) VH: EVQLVESGGGLVQPGGSLRLSCAASGFNIYSYSMHWVRQAPGKGLEWVAYISSSYGYTSYADSVKGRFTISADTSKNTAYLQMNSLRAEDTAVYYCARSWYAWAMDYWGQGTLVTVSS VL: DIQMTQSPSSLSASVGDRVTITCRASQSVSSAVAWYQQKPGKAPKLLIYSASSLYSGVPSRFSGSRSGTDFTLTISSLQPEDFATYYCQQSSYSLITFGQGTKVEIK :: 12
Fab-2917 (Fab, V domains shown, Fab; also called Fv-2917) VH: EVQLVESGGGLVQPGGSLRLSCAASGFNFSSSSIHWVRQAPGKGLEWVASISSSYGYTYYADSVKGRFTISADTSKNTAYLQMNSLRAEDTAVYYCARAVWYYWWVWGGFDYWGQGTLVTVSS VL: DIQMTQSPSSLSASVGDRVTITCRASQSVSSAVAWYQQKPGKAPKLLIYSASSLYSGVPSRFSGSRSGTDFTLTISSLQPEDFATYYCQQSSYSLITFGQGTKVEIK :: 5.57
Fab-2909 (Fab, V domains shown, Fab; also called Fv-2909) VH: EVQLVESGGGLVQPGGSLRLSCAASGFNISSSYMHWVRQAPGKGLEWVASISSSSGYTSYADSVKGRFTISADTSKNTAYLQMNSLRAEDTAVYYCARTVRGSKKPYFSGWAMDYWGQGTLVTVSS VL: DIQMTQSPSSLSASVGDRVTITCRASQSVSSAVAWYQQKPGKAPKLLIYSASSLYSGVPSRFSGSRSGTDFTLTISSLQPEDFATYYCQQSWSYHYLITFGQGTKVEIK :: 5.38
Fab-2936 (Fab, V domains shown, Fab; also called Fv-2936) VH: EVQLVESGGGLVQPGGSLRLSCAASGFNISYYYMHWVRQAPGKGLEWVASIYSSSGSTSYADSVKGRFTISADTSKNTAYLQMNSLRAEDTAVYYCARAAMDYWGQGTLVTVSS VL: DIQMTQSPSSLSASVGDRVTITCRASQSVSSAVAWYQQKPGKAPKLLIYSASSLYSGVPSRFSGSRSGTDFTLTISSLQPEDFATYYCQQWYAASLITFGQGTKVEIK :: 3.52
Fab-2913 (Fab, V domains shown, Fab; also called Fv-2913) VH: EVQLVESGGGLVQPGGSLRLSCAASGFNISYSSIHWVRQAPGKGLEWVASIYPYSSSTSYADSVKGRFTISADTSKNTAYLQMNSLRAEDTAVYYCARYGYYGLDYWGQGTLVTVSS VL: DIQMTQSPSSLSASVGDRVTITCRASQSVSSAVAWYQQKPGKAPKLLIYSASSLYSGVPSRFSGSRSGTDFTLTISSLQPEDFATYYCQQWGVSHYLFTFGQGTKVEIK :: 14.1

q: Item Fab-2916 (Fab, V domains shown, Fab) VH: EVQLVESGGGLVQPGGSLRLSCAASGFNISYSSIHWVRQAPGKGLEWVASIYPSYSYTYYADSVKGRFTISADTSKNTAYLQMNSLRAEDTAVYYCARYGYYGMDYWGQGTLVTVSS VL: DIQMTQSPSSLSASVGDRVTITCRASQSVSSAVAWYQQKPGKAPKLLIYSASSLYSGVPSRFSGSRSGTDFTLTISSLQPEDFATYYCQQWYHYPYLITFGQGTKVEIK has what recorded median fluorescence?
a: 18.9

q: Param item: Fab-2914 (Fab, V domains shown, Fab; also called Fv-2914) VH: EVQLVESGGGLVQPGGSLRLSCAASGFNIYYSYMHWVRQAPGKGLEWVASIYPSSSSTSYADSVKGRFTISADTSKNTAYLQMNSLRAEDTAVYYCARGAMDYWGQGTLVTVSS VL: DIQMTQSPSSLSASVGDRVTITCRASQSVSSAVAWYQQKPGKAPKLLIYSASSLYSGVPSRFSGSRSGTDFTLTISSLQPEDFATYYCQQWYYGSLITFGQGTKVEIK
a: 18.9

q: Param item: Fab-2922 (Fab, V domains shown, Fab; also called Fv-2922) VH: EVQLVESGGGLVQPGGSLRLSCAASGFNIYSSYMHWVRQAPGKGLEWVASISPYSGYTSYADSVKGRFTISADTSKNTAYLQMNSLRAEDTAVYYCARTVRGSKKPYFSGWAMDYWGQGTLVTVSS VL: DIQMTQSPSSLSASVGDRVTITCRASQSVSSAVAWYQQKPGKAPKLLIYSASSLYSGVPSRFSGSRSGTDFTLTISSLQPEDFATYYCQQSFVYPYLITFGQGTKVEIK
a: 4.78

q: Param item: Fab-2929 (Fab, V domains shown, Fab; also called Fv-2929) VH: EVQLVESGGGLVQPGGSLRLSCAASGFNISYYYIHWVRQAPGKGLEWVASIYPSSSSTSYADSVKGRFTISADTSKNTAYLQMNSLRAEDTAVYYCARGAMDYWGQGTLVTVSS VL: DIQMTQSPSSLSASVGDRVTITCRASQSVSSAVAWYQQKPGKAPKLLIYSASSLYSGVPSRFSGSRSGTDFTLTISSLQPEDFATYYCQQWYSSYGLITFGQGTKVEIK
a: 4.29

q: Param item: Fab-2918 (Fab, V domains shown, Fab; also called Fv-2918) VH: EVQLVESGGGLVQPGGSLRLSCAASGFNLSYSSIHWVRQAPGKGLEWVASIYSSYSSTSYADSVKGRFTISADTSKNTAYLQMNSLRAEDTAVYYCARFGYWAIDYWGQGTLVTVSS VL: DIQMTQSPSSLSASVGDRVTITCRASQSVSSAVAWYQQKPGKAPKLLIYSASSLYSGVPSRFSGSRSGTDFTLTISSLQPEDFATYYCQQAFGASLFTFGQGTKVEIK
a: 4.41
